B1: library; a variant is named by its letters at N, in order (parent)
chain: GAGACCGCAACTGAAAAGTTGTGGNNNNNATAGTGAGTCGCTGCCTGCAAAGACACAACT

- Variants of: B1
- Assay Name: ligation selection enrichment (abundance after / before one-round selection) (fold); higher = more template-directed ligation activity
- Assay Context: with T7Psub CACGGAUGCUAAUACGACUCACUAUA; MgCl2 25 mM; 42 °C; 4 h; pH 8.5
Class true: ligation selection enrichment at least 0.4. Class false: ligation selection enrichment below 0.4.

Below, 5 variants whose answers are already recorded.
[
  {
    "Mutant": "TCCCG",
    "Assigned Category": "true"
  },
  {
    "Mutant": "AGGTC",
    "Assigned Category": "false"
  },
  {
    "Mutant": "CGCTC",
    "Assigned Category": "false"
  },
  {
    "Mutant": "GAATT",
    "Assigned Category": "false"
  },
  {
    "Mutant": "ATGCC",
    "Assigned Category": "false"
  }
]

Continue with the next variant.
Would you say TTAGA shows ligation selection enrichment at minimum 0.4? false
